The measured values listed here are drawn from paper doi:10.1101/2024.09.08.611708.

target.system: MpATG8A (M. polymorpha)
Sequence (chain, as listed by the source): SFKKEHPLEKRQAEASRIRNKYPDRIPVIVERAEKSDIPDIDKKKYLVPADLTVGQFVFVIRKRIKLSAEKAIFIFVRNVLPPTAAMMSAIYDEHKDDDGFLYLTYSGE
test.name: ITC
quantity.measured: pKd
Answer as the number alone; pKd is minus log10 of concentration in mol/L.

Return reported pKd. Input binder: DWEIV [canonical AIM peptide (AIM wt)]
7.25
